- System: LXRa:RXRa (NR concentration 270 nM, RXRa partner concentration 90 nM)
- Assay details: PBM binding z-score (relative to random genomic background probes); higher = stronger binding; sequences stand for … in GC…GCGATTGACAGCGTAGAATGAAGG
Use 0.9 as the dividing line for PBM binding z-score, with the line itself on the Condition met side and lower values as Condition not met.

# example entries with known answers
query_sequence=TCTAGTCGGTCACGGAGGTCACACACGACGGGTA assigned_category="Condition met"
query_sequence=CATATTAGTTGACCATAAGGGCAACCGAAGCTCG assigned_category="Condition not met"
query_sequence=TCATATAGGTAAAGGTGAAAGGCGAACGATATGA assigned_category="Condition met"
query_sequence=TCTGCTAGGTCAACGATTGTCAGCTAATCTGCTA assigned_category="Condition met"

Now for another entry.
IN: Reported PBM binding z-score at or above 0.9? `TGTCAAACTTCAAAGGTAACGTAAGTATCCACAC`
OUT: Condition not met
